Reported amount of absorption change per minute values follow for various molecules
tested on: leucine aminopeptidase (LAP); experiment: LAP determination in serum, absorption change per minute (Example 1); type: biochemical; conditions: Serum(1); 37° C.; 745 nm Compound No. 2, 635 nm (a), 565 nm (b), 675 nm (c)
I'd appreciate a reply containing only the number, no unit.

>>> measurement("CC(C)C[C@H](N)C(=O)Nc1ccc([N+](=O)[O-])cc1 [(b), L-leucil-p-nitroanilide]")
0.0071
>>> measurement("CC(C)C[C@H](N)C(=O)Nc1ccc(N(CCCS(=O)(=O)O)CCCS(=O)(=O)O)cc1")
0.0454
>>> measurement("CC(C)C[C@H](N)C(=O)Nc1ccc(O)c(C(=O)O)c1 [(a), L-leucil-3-carboxy-4-hydroxyanilide]")
0.0188

# input Item CCN(CC)c1ccc(NC(=O)[C@@H](N)CC(C)C)cc1 [(c), L-leucil-p-N,N-- diethylaminoanilide] : provide amount of absorption change per minute
# output 0.0158

====

Reported amount of absorption change per minute values follow for various compounds
test system: leucine aminopeptidase (LAP); experiment: LAP determination in serum, absorption change per minute (Example 1); type: biochemical; conditions: Serum (8); same wavelengths
I'd appreciate a reply containing only the number, no unit.

>>> measurement("CC(C)C[C@H](N)C(=O)Nc1ccc([N+](=O)[O-])cc1 [(b), L-leucil-p-nitroanilide]")
0.0086
>>> measurement("CCN(CC)c1ccc(NC(=O)[C@@H](N)CC(C)C)cc1 [(c), L-leucil-p-N,N-- diethylaminoanilide]")
0.0150
>>> measurement("CC(C)C[C@H](N)C(=O)Nc1ccc(O)c(C(=O)O)c1 [(a), L-leucil-3-carboxy-4-hydroxyanilide]")
0.0191

# input Item `CC(C)C[C@H](N)C(=O)Nc1ccc(N(CCCS(=O)(=O)O)CCCS(=O)(=O)O)cc1` : provide amount of absorption change per minute
# output 0.0532

====

assay: Maximum wavelength of formed pigment; type: physicochemical
# λmax: Maximum wavelength >= 700 nm gives Fulfilled, anything below gives Not fulfilled

These solved cases illustrate the format of a correct answer.
>>> answer_label("CC(C)C[C@H](N)C(=O)Nc1ccc(N(CCCS(=O)(=O)O)CCCS(=O)(=O)O)cc1 [Compound No. 2]")
"Fulfilled"
>>> answer_label("CCN(CC(O)CS(=O)(=O)O)c1ccc(NC(=O)CC[C@H](N)C(=O)O)cc1 (stereo partly shown) [compound 5]")
"Fulfilled"

Now look at this one.
# input Assess whether reported λmax: Maximum wavelength for CC(C)C[C@H](N)C(=O)Nc1ccc(N(CCS(=O)(=O)O)CCS(=O)(=O)O)c(C#N)c1 [compound 11] sits at 700 nm or higher.
# output Not fulfilled

====

Reported solubility values follow for various compounds
test: Solubility of substrate; format: physicochemical; conditions: read-out: S: Solubility
Unit mg/mL implied. Number only.

>>> measurement("CC(C)C[C@H](N)C(=O)Nc1ccc(N(CCCS(=O)(=O)O)CCCS(=O)(=O)O)cc1")
130
>>> measurement("CC(C)C[C@H](N)C(=O)Nc1ccc(N(C)CCCS(=O)(=O)O)cc1")
65

Read the next record carefully.
# input Item `CC(C)C[C@H](N)C(=O)Nc1ccc(N(CCCS(=O)(=O)O)CCCS(=O)(=O)O)c(Cl)c1` : provide solubility
# output 125

====

tested on: leucine aminopeptidase (LAP); assay: LAP determination in serum, absorption change per minute (Example 1); type: biochemical; conditions: Serum (7); same wavelengths
measure: amount of absorption change per minute
I'd appreciate a reply containing only the number, no unit.

Solved cases (3 shown):
>>> measurement("CCN(CC)c1ccc(NC(=O)[C@@H](N)CC(C)C)cc1 [(c), L-leucil-p-N,N-- diethylaminoanilide]")
0.0113
>>> measurement("CC(C)C[C@H](N)C(=O)Nc1ccc([N+](=O)[O-])cc1 [(b), L-leucil-p-nitroanilide]")
0.0074
>>> measurement("CC(C)C[C@H](N)C(=O)Nc1ccc(O)c(C(=O)O)c1 [(a), L-leucil-3-carboxy-4-hydroxyanilide]")
0.0153

# input Item CC(C)C[C@H](N)C(=O)Nc1ccc(N(CCCS(=O)(=O)O)CCCS(=O)(=O)O)cc1 [Compound No. 2] : provide amount of absorption change per minute
# output 0.0400

====

test system: leucine aminopeptidase (LAP); assay: LAP determination in serum, absorption change per minute (Example 1); assay type: biochemical; settings: Serum (10); same wavelengths
measure: amount of absorption change per minute

Solved cases (3 shown):
>>> measurement("CC(C)C[C@H](N)C(=O)Nc1ccc(O)c(C(=O)O)c1 [(a), L-leucil-3-carboxy-4-hydroxyanilide]")
0.0184
>>> measurement("CCN(CC)c1ccc(NC(=O)[C@@H](N)CC(C)C)cc1 [(c), L-leucil-p-N,N-- diethylaminoanilide]")
0.0133
>>> measurement("CC(C)C[C@H](N)C(=O)Nc1ccc([N+](=O)[O-])cc1 [(b), L-leucil-p-nitroanilide]")
0.0079

Read the next record carefully.
# input Item CC(C)C[C@H](N)C(=O)Nc1ccc(N(CCCS(=O)(=O)O)CCCS(=O)(=O)O)cc1 [Compound No. 2] : provide amount of absorption change per minute
# output 0.0476

====

system: leucine aminopeptidase (LAP); experiment: LAP determination in serum, absorption change per minute (Example 1); assay type: biochemical; conditions: Serum (3); same wavelengths
Reported amount of absorption change per minute values follow for various compounds
I'd appreciate a reply containing only the number, no unit.

Solved cases (3 shown):
>>> measurement("CC(C)C[C@H](N)C(=O)Nc1ccc([N+](=O)[O-])cc1 [(b), L-leucil-p-nitroanilide]")
0.0090
>>> measurement("CC(C)C[C@H](N)C(=O)Nc1ccc(N(CCCS(=O)(=O)O)CCCS(=O)(=O)O)cc1")
0.0543
>>> measurement("CC(C)C[C@H](N)C(=O)Nc1ccc(O)c(C(=O)O)c1 [(a), L-leucil-3-carboxy-4-hydroxyanilide]")
0.0198

# input Item CCN(CC)c1ccc(NC(=O)[C@@H](N)CC(C)C)cc1 [(c), L-leucil-p-N,N-- diethylaminoanilide] : provide amount of absorption change per minute
# output 0.0150

====

Reported amount of absorption change per minute values follow for various compounds
system: leucine aminopeptidase (LAP); experiment: LAP determination in serum, absorption change per minute (Example 1); format: biochemical; conditions: Serum (6); same wavelengths
I'd appreciate a reply containing only the number, no unit.

>>> measurement("CCN(CC)c1ccc(NC(=O)[C@@H](N)CC(C)C)cc1 [(c), L-leucil-p-N,N-- diethylaminoanilide]")
0.0126
>>> measurement("CC(C)C[C@H](N)C(=O)Nc1ccc(O)c(C(=O)O)c1 [(a), L-leucil-3-carboxy-4-hydroxyanilide]")
0.0158

# input Item CC(C)C[C@H](N)C(=O)Nc1ccc([N+](=O)[O-])cc1 [(b), L-leucil-p-nitroanilide] : provide amount of absorption change per minute
# output 0.0071

# input Item `CC(C)C[C@H](N)C(=O)Nc1ccc(N(CCCS(=O)(=O)O)CCCS(=O)(=O)O)cc1` : provide amount of absorption change per minute
# output 0.0437

====

target: γ-glutamyltranspeptidase (γ-GTP) (Homo sapiens, UniProt P19440); construct: from tissue; host or cells: serum; test: γ-GTP determination in serum (Example 3); type: biochemical; conditions: found with the compound as substrate; standard serum 235 mU/ml; 37° C., 5 minutes; wavelength of Table 2
Sequence (P19440 1-380 limits assumed): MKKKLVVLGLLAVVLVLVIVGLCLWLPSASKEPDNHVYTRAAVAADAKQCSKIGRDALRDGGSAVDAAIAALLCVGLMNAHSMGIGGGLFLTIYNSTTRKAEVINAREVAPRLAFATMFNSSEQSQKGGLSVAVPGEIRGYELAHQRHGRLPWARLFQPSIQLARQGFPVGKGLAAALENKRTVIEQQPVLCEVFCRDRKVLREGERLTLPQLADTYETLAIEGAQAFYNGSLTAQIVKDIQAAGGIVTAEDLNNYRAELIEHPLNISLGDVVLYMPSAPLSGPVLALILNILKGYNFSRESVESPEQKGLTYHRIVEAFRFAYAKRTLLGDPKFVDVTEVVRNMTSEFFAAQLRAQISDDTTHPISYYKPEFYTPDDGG
Sequence (P19440 381-569 limits assumed): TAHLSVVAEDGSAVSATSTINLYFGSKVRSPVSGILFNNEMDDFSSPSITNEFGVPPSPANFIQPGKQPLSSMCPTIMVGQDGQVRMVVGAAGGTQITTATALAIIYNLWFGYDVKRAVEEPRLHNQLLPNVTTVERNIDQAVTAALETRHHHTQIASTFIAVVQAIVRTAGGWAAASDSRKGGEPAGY
measure: γ-GTP activity of the serum sample (mU/ml)
Unit mU/ml implied. Number only.

Solved cases (3 shown):
>>> measurement("N[C@@H](CCC(=O)Nc1ccc(N(CCCS(=O)(=O)O)CCCS(=O)(=O)O)c(S(=O)(=O)O)c1)C(=O)O [compound 7]")
240
>>> measurement("CCN(CC(O)CS(=O)(=O)O)c1ccc(NC(=O)CC[C@H](N)C(=O)O)cc1 (some centres unmarked) [compound 5]")
236
>>> measurement("N[C@@H](CCC(=O)Nc1ccc(N(CCCS(=O)(=O)O)CCCS(=O)(=O)O)cc1)C(=O)O [compound 1]")
231

# input State recorded γ-GTP activity of the serum sample with γ-glutamyltranspeptidase (γ-GTP) (Homo sapiens, UniProt P19440), entry CN(CCCS(=O)(=O)O)c1ccc(NC(=O)CC[C@H](N)C(=O)O)cc1 [compound 3] , no comment.
# output 228

# input State recorded γ-GTP activity of the serum sample with γ-glutamyltranspeptidase (γ-GTP) (Homo sapiens, UniProt P19440), entry N[C@@H](CCC(=O)Nc1ccc(N(CCCS(=O)(=O)O)CCCS(=O)(=O)O)c(Cl)c1)C(=O)O [compound 9] , no comment.
# output 242

====

tested on: leucine aminopeptidase (LAP); assay: LAP determination in serum, absorption change per minute (Example 1); assay type: biochemical; details: Serum (4); same wavelengths
measure: amount of absorption change per minute
I'd appreciate a reply containing only the number, no unit.

Solved cases (3 shown):
>>> measurement("CC(C)C[C@H](N)C(=O)Nc1ccc(O)c(C(=O)O)c1 [(a), L-leucil-3-carboxy-4-hydroxyanilide]")
0.0203
>>> measurement("CC(C)C[C@H](N)C(=O)Nc1ccc(N(CCCS(=O)(=O)O)CCCS(=O)(=O)O)cc1")
0.0541
>>> measurement("CC(C)C[C@H](N)C(=O)Nc1ccc([N+](=O)[O-])cc1 [(b), L-leucil-p-nitroanilide]")
0.0089

Read the next record carefully.
# input State recorded amount of absorption change per minute with leucine aminopeptidase (LAP), entry CCN(CC)c1ccc(NC(=O)[C@@H](N)CC(C)C)cc1 [(c), L-leucil-p-N,N-- diethylaminoanilide] , no comment.
# output 0.0145
